// provenance: PubChem BioAssay AID1963980

Measured viability, T/C by item
System: 475296-252-R-J1-PDC spheroid viability;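 further: spheroids exposed to agents for seven days before readout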
experiment summary: Anticancer human tumor 475296-252-R-J1-PDC patient-derived rectal carcinoma cell line growth inhibition [PI3K]
cond: second compound 1 µM; first compound 0.949 µM; hits give low values; spheroids with HUVEC and MSC

In [3]: df
Out[3]:
                                   compound  data_value
0  Cn1cnc2c(F)c(Nc3ccc(Br)cc3Cl)c(C(=O)NOCCO)cc21 + CC(Nc1ncnc2nc[nH]c12)c1cc2cccc(Cl)c2c(=O)n1-c1ccccc1       67.3%
1  Cn1cnc2c(F)c(Nc3ccc(Br)cc3Cl)c(C(=O)NOCCO)cc21 + CC(Nc1ccc2c(c1)OCCn1cc(N3C(=O)OCC3C(F)F)nc1-2)C(N)=O       25.4%
2  Cn1cnc2c(F)c(Nc3ccc(Br)cc3Cl)c(C(=O)NOCCO)cc21 + COc1c(OCCCN2CCOCC2)ccc2c3n(c(=NC(=O)c4cnc(N)nc4)nc12)CCN3       5.23%

For the next question, use this compound.
Reported viability, T/C for Cn1cnc2c(F)c(Nc3ccc(Br)cc3Cl)c(C(=O)NOCCO)cc21 + Cc1nc(NC(=O)N2CCCC2C(N)=O)sc1-c1ccnc(C(C)(C)C(F)(F)F)c1 was 47%
